- method_description: Retention factor, logKw of the compound in pure aqueous mobile phases by RP-HPLC method
- Assay type: physicochemical
- condition_details: buffer
Mark met for logKw under 2, not met if at or over.

Consider the molecule `COCCNC(=O)c1ccc2c(c1)no[n+]2[O-]` . Is its logKw strictly less than 2?
met

Follow-up item: `Cc1c(C=O)no[n+]1[O-]`
met

Follow-up item: `COCCNC(=O)N/N=C\c1ccc2c(c1)no[n+]2[O-]`
not met

Follow-up item: `Cc1c(/C=N/NC(=O)NC2CCCCC2)no[n+]1[O-]`
not met

Follow-up item: `CCCCNC(=O)c1ccc2c(c1)no[n+]2[O-]`
not met

Follow-up item: `Cc1ccc2c(c1)no[n+]2[O-]`
not met

Follow-up item: `NC(=S)N/N=C/c1c(-c2ccccc2)no[n+]1[O-]`
not met

Follow-up item: `COC(=O)N/N=C/c1ccc2nonc2c1`
not met

Follow-up item: `O=C(c1ccc2c(c1)no[n+]2[O-])N1CCOCC1`
met

Follow-up item: `COC(=O)N/N=C/c1c(-c2ccccc2)no[n+]1[O-]`
not met

Follow-up item: `COC(=O)N/N=C/c1no[n+]([O-])c1C`
met

Follow-up item: `O=Cc1ccc2c(c1)no[n+]2[O-]`
not met

Follow-up item: `Cc1c(/C=N/NC(N)=S)no[n+]1[O-]`
met

Follow-up item: `[O-][n+]1onc(-c2ccccc2)c1CCl`
not met

* * *

Answer each item with its documented Activity.
- Test system: Triticum aestivum
- method_description: Pre-emergence herbicidal activity against Triticum aestivum L. (wheat) assessed change in aerial weight
- Type: functional
- Set-up: concentration or dose not given beside the values
Just the number in %, nothing appended.

Which Activity value is on record for `O=C(c1ccc2c(c1)no[n+]2[O-])N1CCOCC1` ?
-55

Follow-up item: `NC(=S)N/N=C/c1c(-c2ccccc2)no[n+]1[O-]`
-30

Follow-up item: `O=C(Nc1ccc(Cl)cc1)c1ccc2c(c1)no[n+]2[O-]`
-50

Follow-up item: `Cc1c(/C=N/NC(=O)NC2CCCCC2)no[n+]1[O-]`
-50

Follow-up item: `CCCCNC(=O)c1ccc2c(c1)no[n+]2[O-]`
-71

Follow-up item: `O=Cc1c(-c2ccccc2)no[n+]1[O-]`
-4

Follow-up item: `COC(=O)N/N=C/c1c(-c2ccccc2)no[n+]1[O-]`
-22

Follow-up item: `[O-][n+]1onc(-c2ccccc2)c1CN1CCN(c2ncccn2)CC1`
0

Follow-up item: `Cc1c(C=O)no[n+]1[O-]`
-5

Follow-up item: `COC(=O)N/N=C/c1ccc2nonc2c1`
35

Follow-up item: `Cc1ccc2c(c1)no[n+]2[O-]`
-58

Follow-up item: `[O-][n+]1onc(-c2ccccc2)c1CCl`
-4

Follow-up item: `O=C(O)c1ccc2c(c1)no[n+]2[O-]`
-16

Follow-up item: `COCCNC(=O)c1ccc2c(c1)no[n+]2[O-]`
-23

Follow-up item: `COC(=O)N/N=C/c1no[n+]([O-])c1C`
-50

Follow-up item: `O=Cc1ccc2c(c1)no[n+]2[O-]`
-30

Follow-up item: `COC(=O)N/N=C\c1ccc2c(c1)no[n+]2[O-]`
-6
